Parameter difference in startle response: see the listing below.
Test system: Danio rerio larvae (5 dpf)
Assay: difference in startle response vs DMSO (percentage points); higher = stronger startle than DMSO
Details: 10 µM; exposure time 6 h
Where a name gives a salt, the structure may show the parent alone.
Output spec: single numeric token, no unit.

Worked examples follow.
CCOC(=O)O[C@]1(C(=O)COC(=O)CC)CC[C@H]2[C@@H]3CCC4=CC(=O)C=C[C@]4(C)[C@H]3[C@@H](O)C[C@@]21C [Prednicarbate]	3.6
CC(C[N+](C)(C)C)OC(N)=O (stereo not given) [Bethanechol (chloride)]	-0.356

Item under review: c1ccc2c(CC3=NCCN3)cccc2c1 [Naphazoline (hydrochloride)] . Reported difference in startle response?
-5.95

Item under review: CCCNC(C)C(=O)Nc1c(C)csc1C(=O)OC (stereo not given) [Articaine (hydrochloride)] . Reported difference in startle response?
-2.43

Item under review: CNC(=O)c1ccc(N2C(=S)N(c3cnc(C#N)c(C(F)(F)F)c3)C(=O)C23CCC3)cc1F . Reported difference in startle response?
-1.13

Item under review: COc1cc2c(cc1OC)[C@@H](Cc1cc(OC)c(OC)c(OC)c1)[N+](C)(CCCOC(=O)CC/C=C/CCC(=O)OCCC[N+]1(C)CCc3cc(OC)c(OC)cc3[C@H]1Cc1cc(OC)c(OC)c(OC)c1)CC2 (stereo not given in full) [Mivacurium (chloride)] . Reported difference in startle response?
-7.63

* * *

Tested on: Danio rerio larvae (5 dpf)
Assay: difference in combined optomotor response to red, green and blue moving lines vs DMSO (percentage points); higher = stronger optomotor response than DMSO
Conditions: 10 µM; exposure time 6 h
Structures can show the parent of a compound that is named as a salt.
PROPERTY MEASURED: difference
Output spec: single numeric token, no unit.

Worked examples follow.
C[C@H]1CN(C[C@H](Cc2ccccc2)C(=O)NCC(=O)O)CC[C@@]1(C)c1cccc(O)c1	-3.48
CN(N=O)C(=O)N[C@@H](C=O)[C@@H](O)[C@H](O)[C@H](O)CO	-1.53
C#CCN[C@@H]1CCc2ccccc21	6.27
Cc1cnc(NC(=O)C2=C(O)c3ccccc3S(=O)(=O)N2C)s1	4.63
CCN1CC(CCN2CCOCC2)C(c2ccccc2)(c2ccccc2)C1=O (stereo not drawn) [Doxapram (hydrochloride hydrate)]	1.89

// lookup difference | system=Danio rerio larvae (5 dpf) | key= O=C1c2c(O)ccc(O)c2C(=O)c2c(NCCNCCO)ccc(NCCNCCO)c21 [Mitoxantrone (hydrochloride)]
-15.4

// lookup difference | system=Danio rerio larvae (5 dpf) | key= CC(S)C(=O)NCC(=O)O (stereo not drawn)
3.9

// lookup difference | system=Danio rerio larvae (5 dpf) | key= COC(=O)N[C@H](C(=O)N[C@@H](Cc1ccccc1)[C@@H](O)CN(Cc1ccc(-c2ccccn2)cc1)NC(=O)[C@@H](NC(=O)OC)C(C)(C)C)C(C)(C)C
2.7

// lookup difference | system=Danio rerio larvae (5 dpf) | key= N[C@@H](Cc1cc(I)c(Oc2cc(I)c(O)c(I)c2)c(I)c1)C(=O)O
1.95

// lookup difference | system=Danio rerio larvae (5 dpf) | key= CN(C)C(=O)C(CCN1CCC(O)(c2ccc(Cl)cc2)CC1)(c1ccccc1)c1ccccc1 [Loperamide (hydrochloride)]
-2.52

// lookup difference | system=Danio rerio larvae (5 dpf) | key= CC(=O)c1ccc(S(=O)(=O)NC(=O)NC2CCCCC2)cc1 [Acetohexamide]
2.21

// lookup difference | system=Danio rerio larvae (5 dpf) | key= CC(COc1ccccc1)N(CCCl)Cc1ccccc1 (stereo not drawn) [Phenoxybenzamine (hydrochloride)]
2.87

* * *

Test system: Danio rerio larvae (5 dpf)
Assay: difference in startle response vs DMSO (percentage points); higher = stronger startle than DMSO
Conditions: 10 µM; exposure time 6 h
Where a name gives a salt, the structure may show the parent alone.
Parameter difference in startle response: see the listing below.
Output spec: single numeric token, no unit.

O=C1CN2Cc3c(ccc(Cl)c3Cl)N=C2N1 [Anagrelide (hydrochloride)]	-3.44

Let us move to another entry and its difference in startle response.
Item under review: Cc1ccc([C@@H]2O[C@H](CO)[C@@H](O)[C@H](O)[C@H]2O)cc1Cc1ccc(-c2ccc(F)cc2)s1 [Canagliflozin] . Reported difference in startle response?
-3.92

* * *

Tested on: Danio rerio larvae (5 dpf)
Assay: difference in habituation to acoustic stimuli vs DMSO (percentage points); higher = more habituation than DMSO
Conditions: 10 µM; exposure time 6 h
Where a name gives a salt, the structure may show the parent alone.
Returns one of label 1 or label 0; label 1 when difference in habituation to acoustic stimuli is >= 3.

O=C1CN(/N=C/c2ccc(-c3ccc([N+](=O)[O-])cc3)o2)C(=O)N1 [Dantrolene (sodium salt)]	label 0

Check this molecule for difference in habituation to acoustic stimuli at or above 3: N=C(N)N/N=C/c1c(Cl)cccc1Cl [Guanabenz (hydrochloride)]
label 1

Check this molecule for difference in habituation to acoustic stimuli at or above 3: O=C(C1CCCCC1)N1CC(=O)N2CCc3ccccc3C2C1 (centres undefined)
label 1

Check this molecule for difference in habituation to acoustic stimuli at or above 3: CC1=C(C/C=C(\C)CCC[C@H](C)CCC[C@H](C)CCCC(C)C)C(=O)c2ccccc2C1=O
label 0

Check this molecule for difference in habituation to acoustic stimuli at or above 3: CCCS(=O)(=O)Nc1ccc(F)c(C(=O)c2c[nH]c3ncc(-c4ccc(Cl)cc4)cc23)c1F
label 0

Check this molecule for difference in habituation to acoustic stimuli at or above 3: CN(C)CCC(c1ccc(Cl)cc1)c1ccccn1 (centres undefined) [Chlorpheniramine (maleate)]
label 0

Check this molecule for difference in habituation to acoustic stimuli at or above 3: C=C1[C@H](CO)[C@@H](O)C[C@@H]1n1cnc2c(=O)[nH]c(N)nc21 [Entecavir (hydrate)]
label 1

Check this molecule for difference in habituation to acoustic stimuli at or above 3: CC(C)(C)C(O)/C=C/c1ccc2c(c1)OCO2 (centres undefined)
label 0

* * *

System: Danio rerio larvae (5 dpf)
Test: difference in startle response vs DMSO (percentage points); higher = stronger startle than DMSO
Details: 10 µM; exposure time 6 h
Structures can show the parent of a compound that is named as a salt.
PROPERTY MEASURED: difference in startle response
Output spec: single numeric token, no unit.

CCN(CC)CCNC(=O)c1c(C)[nH]c(/C=C2\C(=O)Nc3ccc(F)cc32)c1C [Sunitinib (malate)]	-2.13
CCOc1ccc(Cc2cc([C@@H]3O[C@H](CO)[C@@H](O)[C@H](O)[C@H]3O)ccc2Cl)cc1	0.361
O=C(O)C1(C(=O)O)CCC1.[NH2-].[NH2-].[Pt+2]	-1.15

Let us move to another entry and its difference in startle response.
Item under review: CC(C)[C@H](N)C(=O)OCCOCn1cnc2c(=O)[nH]c(N)nc21 [L-Valacyclovir (hydrochloride)] . Reported difference in startle response?
6.55

* * *

Tested on: Danio rerio larvae (5 dpf)
Test: difference in combined optomotor response to red, green and blue moving lines vs DMSO (percentage points); higher = stronger optomotor response than DMSO
Conditions: 10 µM; exposure time 6 h
Counter-ions that a name gives are not always drawn.
Parameter difference: see the listing below.
Output spec: single numeric token, no unit.

NC1=NCC2c3ccccc3Cc3ccccc3N12 (centres undefined) [Epinastine (hydrochloride)]	7.56
CCOc1ccccc1OCCN[C@H](C)Cc1ccc(OC)c(S(N)(=O)=O)c1 [Tamsulosin (hydrochloride)]	1.52
Cc1nnc(SCC2=C(C(=O)O)N3C(=O)[C@@H](NC(=O)Cn4cnnn4)[C@H]3SC2)s1 [Cefazolin (sodium salt)]	5.77

Let us move to another entry and its difference.
Item under review: N[C@H](C(=O)O)[C@H](O)c1ccc(O)c(O)c1 [Droxidopa] . Reported difference?
2.12

* * *

System: Danio rerio larvae (5 dpf)
Assay: difference in combined optomotor response to red, green and blue moving lines vs DMSO (percentage points); higher = stronger optomotor response than DMSO
Details: 10 µM; exposure time 6 h
Where a name gives a salt, the structure may show the parent alone.
PROPERTY MEASURED: difference

Item under review: O=C1Cc2cc(CCN3CCN(c4nsc5ccccc45)CC3)c(Cl)cc2N1 [Ziprasidone (hydrochloride hydrate)] . Reported difference?
5.5

* * *

Tested on: Danio rerio larvae (5 dpf)
Assay: difference in excitability vs DMSO (percentage points); higher = more excitable than DMSO
Settings: 10 µM; exposure time 6 h
Class (required): determined from difference in excitability; valid ranges are b0 (below 0.8), b1 (0.8 to below 10), b2 (10 or more)

// known answers, use as guide
CCC[C@@H]1C[C@@H](C(=O)N[C@@H]([C@H]2O[C@H](SC)[C@H](O)[C@@H](O)[C@H]2O)[C@H](C)Cl)N(C)C1	b0
CN1CCC(=C2c3ccccc3CCn3c(C=O)cnc32)CC1	b0
Cc1ccnc2c1NC(=O)c1cccnc1N2C1CC1	b0

GET /class?item= COc1cc(NC(C)CCCN)c2ncccc2c1 (centres undefined) [Primaquine (phosphate)]
b2

GET /class?item= CC(=O)CCCCn1c(=O)c2c(ncn2C)n(C)c1=O
b2
